Overview of reported ABSOLUTE SEGMENTED NEUTROPHIL across a group of compounds:
species: Rattus norvegicus; assay: DrugMatrix - Regimen: Daily Repeat; type: toxicity, organism-based, Sprague-Dawley; design: regimen Daily Repeat, gender Male, age 6-8 weeks; conditions: in vivo, po, 0 mg/kg, 120 h, tissue Blood, route oral GAVAGE, dose level Control, time 5 day, vehicle 100 % WATER
Number in CELLS/uL, nothing else.

CNC1=Nc2ccc(Cl)cc2C(c2ccccc2)=[N+]([O-])C1 [CHLORDIAZEPOXIDE]
968.5
CN(C)C(=O)Oc1cccc([N+](C)(C)C)c1.[Br-] [NEOSTIGMINE BROMIDE]
725.5
CN(C)CCC=C1c2ccccc2CCc2ccccc21
896.5
CCN(C(C)=O)c1cccc(-c2ccnc3c(C#N)cnn23)c1
896.5
NC12CC3CC(CC(C3)C1)C2
896.5
CCCC(C)C1(CC)C(=O)NC(=O)NC1=O (stereo not drawn)
725.5
NC(=O)c1cccnc1 [NIACINAMIDE]
1313.67

Please turn your attention to the following entry.
Inquiry: Determine its reported ABSOLUTE SEGMENTED NEUTROPHIL: O=c1[nH]c(=O)n(C2CCCO2)cc1F (stereo not drawn)
Reply text: 2116.33

----------
species on record: Rattus norvegicus; assay: DrugMatrix - Regimen: Daily Repeat; format: toxicity, organism-based, Sprague-Dawley; set-up: regimen Daily Repeat, gender Male, age 6-8 weeks; conditions: in vivo, po, 0 mg/kg, […], tissue Blood, route oral GAVAGE, dose level Control, time 14 day, vehicle .5 % CMC
OUTCOME_MEASURE: ABSOLUTE BASOPHIL (CELLS/uL)
Give the quantity in CELLS/uL, number only.

Inquiry: Supply recorded ABSOLUTE BASOPHIL for COc1ccccc1[N+](=O)[O-] here.
Reply text: 0

----------
compounds and their reported PHOSPHORUS
species on record: Rattus norvegicus; test: DrugMatrix - Regimen: Daily Repeat; type: toxicity, organism-based, Sprague-Dawley; design: regimen Daily Repeat, gender Male, age 6-8 weeks; settings: in vivo, po, 0 mg/kg, 72 h, tissue Plasma, route oral GAVAGE, dose level Control, time 3 day, […]
Numbers only here, please. The scale is mg/dL.

CCCCC(=O)N(Cc1ccc(-c2ccccc2-c2nnn[nH]2)cc1)[C@H](C(=O)O)C(C)C
10.33
CC(C)c1c(C(=O)Nc2ccccc2)c(-c2ccccc2)c(-c2ccc(F)cc2)n1CC[C@@H](O)C[C@@H](O)CC(=O)O
10.07
O=c1c(-c2ccc(O)cc2)coc2cc(O)cc(O)c12
10.07
Cc1ccc(C)c(OCCCC(C)(C)C(=O)O)c1
8.28
ClC(Cl)(Cl)Cl [CARBON TETRACHLORIDE]
9.25

Inquiry: For the compound CS(=O)(=O)Nc1ccc([N+](=O)[O-])cc1Oc1ccccc1 [NIMESULIDE] , report PHOSPHORUS.
Reply text: 8.77

Inquiry: In one line, give reported PHOSPHORUS of the entry CC(=O)Oc1ccccc1C(=O)O .
Reply text: 10.2

Inquiry: Please supply the value of reported PHOSPHORUS for the item c1ccoc1
Reply text: 12.42

----------
organism: Rattus norvegicus; assay type: toxicity, organism-based, Sprague-Dawley; settings: in vivo, po, 0 mg/kg, 24 h, tissue Blood, route oral GAVAGE, dose level Control, time 1 day, vehicle .5 % CMC
Description: DrugMatrix - Regimen: Single
OUTCOME_MEASURE: ABSOLUTE LYMPHOCYTE (cells/µL)
Field: numeric (cells/µL). Do not append units.

Inquiry: For CN(C)CCN(Cc1cccs1)c1ccccn1 , write its ABSOLUTE LYMPHOCYTE.
Reply text: 8340

This collection of values is drawn from ChEMBL document CHEMBL3885881.
